Where do the numbers come from? From patent US20160362487A1.

# assayTarget: T1, human IL-33 (R&D Systems, #3625-IL-010/CF) (human, UniProt O95760 112-270)
# T1 construct: Commercial recombinant protein; also called hIL-33; interleukin-33
# T1 sequence (looked up): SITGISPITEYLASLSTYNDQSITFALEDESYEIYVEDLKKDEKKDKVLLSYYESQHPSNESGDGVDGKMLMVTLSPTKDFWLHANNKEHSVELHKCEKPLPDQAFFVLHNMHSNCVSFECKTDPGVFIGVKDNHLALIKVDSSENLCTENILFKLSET
# experimentalProtocol: SPR 25C pH7.4, mAb captured
measuredParameter: koff (s⁻¹)
Number only, in s⁻¹; omit the unit.

Which koff value belongs to H4H9670P (antibody, V domains shown, Human IgG4 Fc (H4H)) VH: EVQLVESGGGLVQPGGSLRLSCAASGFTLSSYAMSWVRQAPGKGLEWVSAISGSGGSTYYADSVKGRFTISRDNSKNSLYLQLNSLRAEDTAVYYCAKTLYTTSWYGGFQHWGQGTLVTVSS VL: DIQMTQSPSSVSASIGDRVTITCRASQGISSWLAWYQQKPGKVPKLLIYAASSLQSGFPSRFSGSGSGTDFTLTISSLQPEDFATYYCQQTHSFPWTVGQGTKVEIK ?
0.000289

Field request: koff | item: H4H9671P (antibody, human IgG4, V domains shown, Human IgG4 Fc (H4H)) VH: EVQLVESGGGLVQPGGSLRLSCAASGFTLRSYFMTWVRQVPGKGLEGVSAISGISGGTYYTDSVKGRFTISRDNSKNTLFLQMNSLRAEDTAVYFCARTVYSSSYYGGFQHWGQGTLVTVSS VL: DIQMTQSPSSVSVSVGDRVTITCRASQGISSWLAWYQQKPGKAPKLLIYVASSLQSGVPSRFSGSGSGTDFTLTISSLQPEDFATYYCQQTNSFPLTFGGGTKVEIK
0.000349

Would you kindly share the measured koff for H4H9663P (antibody, human IgG4, V domains shown, Human IgG4 Fc (H4H)) VH: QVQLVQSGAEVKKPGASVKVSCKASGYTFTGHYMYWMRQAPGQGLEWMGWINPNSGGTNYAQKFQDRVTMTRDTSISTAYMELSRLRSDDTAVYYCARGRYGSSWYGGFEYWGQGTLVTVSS VL: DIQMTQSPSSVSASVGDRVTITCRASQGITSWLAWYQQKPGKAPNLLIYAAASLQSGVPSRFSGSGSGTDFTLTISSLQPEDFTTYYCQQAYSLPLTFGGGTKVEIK ?
0.000414
